Values compiled from patent US6737383B1.

- Test system: pigweed
- Method Description: Test B pre/postemergence pigweed
- Format: in vivo, Amaranthus retroflexus
- Setup Conditions: Preemergence, Rate 500 g/ha; scale of 0 to 10 where 0 is no effect and 10 is complete control
Measured Quantity: Plant response rating, Redroot pigweed
Answers are plain numbers.

COc1cc(C)cc(C)c1-n1c(=O)on(C(=O)N(c2ccc(F)cc2F)C(C)C)c1=O [Compound 223]    7

Could I get Plant response rating, Redroot pigweed for every one of these entries?
1. CC(C)N(C(=O)n1oc(=O)n(CC2CCCCO2)c1=O)c1ccccc1 (centres unmarked) [Compound 659]
2. Cc1nc(C)c(Cn2c(=O)on(C(=O)N(c3ccc(F)cc3)C(C)C)c2=O)s1 [Compound 232]
3. CCOC(=O)C(C)N(C(=O)n1oc(=O)n(C2CCCCC2)c1=O)c1ccc(F)cc1 (centres unmarked) [Compound 280]
4. CC[C@H](C)n1c(=O)on(C(=O)N(c2ccc(Cl)cc2)C(C)C)c1=O [Compound 664]

10
7
0
10

Could I get Plant response rating, Redroot pigweed for every one of these entries?
1. CCC(C)n1c(=O)on(C(=O)N(c2ccccc2)C(C)C)c1=O (centres unmarked) [Compound 611]
2. C=C(Cn1c(=O)on(C(=O)N(c2ccccc2)C(C)C)c1=O)c1cccc(Cl)n1 [Compound 605]
3. CCc1cccc(C)c1-n1c(=O)on(C(=O)N(c2ccc(F)cc2)C(C)C)c1=O [Compound 201]

1. 10
2. 0
3. 0
